# Target: HLA-A*33:01
# Procedure summary: IEDB peptide-MHC binding, purified MHC/competitive/radioactivity; filed as Kd, often an IC50 or EC50 that approximates it; bounds were set here for any values at or beyond the usual limits of such assays
# Cond: source organism: Dengue virus 3 Martinique/1243/1999
Readout kind: Kd

-- ask Kd for `VFHTMWHVTR` ?
-- reply 135 nM

----------
# Target: HLA-A*29:02
# Procedure summary: IEDB peptide-MHC binding, purified MHC/competitive/fluorescence; filed as Kd, often an IC50 or EC50 that approximates it; bounds were set here for any values at or beyond the usual limits of such assays
# Cond: source organism: Cryptosporidium parvum Iowa II
Readout kind: Kd (nM)
Numbers only here, please. The scale is nM.

{"columns": ["Sequence code", "Readout kind", "Recorded value"],
 "data": [
  ["KLGDITLFL", "Kd", 34.1]
]}

-- ask Request: Kd, test system HLA-A*29:02, entry `KIFKVTGEF`
-- reply 734

----------
# Target: HLA-A*69:01
# Procedure summary: IEDB peptide-MHC binding, purified MHC/direct/fluorescence; filed as Kd, often an IC50 or EC50 that approximates it; bounds were set here for any values at or beyond the usual limits of such assays
# Cond: source organism: Francisella tularensis subsp. holarctica LVS
pKd: −log10 of the molar value.
Readout kind: pKd

-- ask Recorded pKd for `REMGIVDLL` , please?
-- reply ≤ 4.70

----------
# Target: HLA-B*58:01
# Procedure summary: IEDB peptide-MHC binding, purified MHC/direct/fluorescence; filed as Kd, often an IC50 or EC50 that approximates it; bounds were set here for any values at or beyond the usual limits of such assays
# Cond: source organism: Camelpox virus M-96
pKd: −log10 of the molar value.
Listing of recorded pKd by entry.

{"columns": ["Sequence code", "Readout kind", "Recorded value"],
 "data": [
  ["RVATENIAV", "pKd", "≤ 4.70"]
]}

-- ask Could you share which pKd value was measured for `IQFMHEQGY` ?
-- reply ≤ 4.70

----------
# Target: HLA-C*14:02
# Procedure summary: IEDB peptide-MHC binding, purified MHC/direct/fluorescence; filed as Kd, often an IC50 or EC50 that approximates it; bounds were set here for any values at or beyond the usual limits of such assays
# Cond: source organism: Mycobacterium tuberculosis C
Readout kind: pKd
When answering, recall that pKd equals minus log10 of the concentration in mol/L, and write that number alone.

-- ask Which value of pKd has been reported for `APAAAAQAV` in the records?
-- reply 5.51

----------
# Target: HLA-B*51:01
# Procedure summary: IEDB peptide-MHC binding, purified MHC/competitive/radioactivity; filed as Kd, often an IC50 or EC50 that approximates it; bounds were set here for any values at or beyond the usual limits of such assays
# Cond: source organism: Dengue virus 2 Jamaica/1409/1983
Listing: Kd of selected sequences
Numbers only here, please. The scale is nM.

{"columns": ["Sequence code", "Target", "Scale unit", "Kd"],
 "data": [
  ["FLTIPPTAGI", "HLA-B*51:01", "nM", 343]
]}

Consider the additional sequence presented here.
-- ask Which Kd value belongs to `LPVWLAYRV` ?
-- reply 130

----------
# Target: HLA-A*03:01
# Procedure summary: IEDB peptide-MHC binding, purified MHC/competitive/fluorescence; filed as Kd, often an IC50 or EC50 that approximates it; bounds were set here for any values at or beyond the usual limits of such assays
# Cond: source organism: Mycobacterium tuberculosis variant bovis BCG str. Pasteur 1173P2
pKd: −log10 of the molar value.
Readout kind: pKd

-- ask Report pKd for `RLAPEPVYT` tested on HLA-A*03:01.
-- reply ≤ 4.70

Ref: the Immune Epitope Database (IEDB)
